System: c-Src;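 also: 11-residue human phosphosite peptides and single-mutation variants displayed on the E. coli surface, counted by deep sequencing, each peptide's frequency after selection divided by its frequency in the unselected input library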;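 also: frequency after pTyr selection over input frequency; kinase dosed for 20-30% of maximal phosphorylation in three min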
ASSAY_TEXT: phosphorylation enrichment, bacterial display (enrichment ratio); higher = better substrate or ligand; peptides without Tyr show the background
I would appreciate it if you labelled entries TRUE when phosphorylation enrichment is 0.8 or higher, otherwise FALSE.

SEQUENCE_CONTENT	ASSIGNED_CATEGORY
GKSFTYAAFHA [KCNT1_Y563]	TRUE
LEVPLYKNGVK [CPS1_Y1069_A1065E]	FALSE
KYLENYLNRLL [PLD2_Y169]	FALSE
STGRSYAGVAV [KLHL3_Y577]	FALSE
KLVQLYGVCTK [BTK_Y461]	TRUE

Record AGQEDYDRLRP [CDC42_Y64] ; criterion: phosphorylation enrichment no lower than 0.8. Met?
FALSE

Record TAGEPYHDIRF [BAP1_Y223] ; criterion: phosphorylation enrichment no lower than 0.8. Met?
FALSE

Record VTQEPYELFCE [CBL_Y368_Q367P_YF] ; criterion: phosphorylation enrichment no lower than 0.8. Met?
TRUE

Record AVIADYMFWLG [SPATA16_Y290_M286V] ; criterion: phosphorylation enrichment no lower than 0.8. Met?
TRUE

Record NKKYHYRELPV [ERN2_Y860_H858Y] ; criterion: phosphorylation enrichment no lower than 0.8. Met?
FALSE

Just for reference, the supplement of paper PMC10065799 is where these values come from.
